Listed here are sequences together with their documented protein stability index.
- EXPERIMENT DESCRIPTION: protein stability index of a GFP-peptide fusion (GPS, HEK-293T) (PSI 1-6); higher = more stable;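 note: 24-mer peptide tiles fused after GFP, lentivirally expressed, FACS-sorted into six equal bins by GFP/DsRed ratio, decoded by Illumina sequencing, PSI is the read-weighted mean bin number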
- CONDITION SUMMARY: treatment: DMSO; c terminus: a fixed tail appended

Some solved entries appear below for comparison.
q: What measured protein stability index goes with GSKYYNVEAMYCYLRCIQSEVSFE [SMG5] ?
a: 3.05

q: What measured protein stability index goes with AALKQAIKDKEAPLHVAQTRLYLR [TEKT4] ?
a: 3.06

q: What measured protein stability index goes with NLISLLALRVLAEQNIIPSATNVT [TENT5C] ?
a: 2.94

q: What measured protein stability index goes with DSPSRSPSKVEVTEKTTTVLSESS [C2CD2L] ?
a: 5.59

q: What measured protein stability index goes with ELKRRVAEELALEQAKKESEDQKR [CHCHD3] ?
a: 4.14

Next:
q: What measured protein stability index goes with ATSATSHTRSLNSIIHQMEKFSSS [FBF1] ?
a: 3.34

q: What measured protein stability index goes with SDPQLIVQLRFCGRQPCGRFLRAY [TRADD] ?
a: 2.35

q: What measured protein stability index goes with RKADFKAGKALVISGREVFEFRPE [ZC3H15] ?
a: 3.11

q: What measured protein stability index goes with RFELINIDDLEDDPVVNGERSGCA [TCF25] ?
a: 4.69

q: What measured protein stability index goes with MGREKCHQYWPAERSARYQYFVVD [PTPRD] ?
a: 2.3

q: What measured protein stability index goes with EYAWCLVRSKYNDDIRKGIVLLEE [FIS1] ?
a: 2.13

The measured values listed here are drawn from the supplement of paper PMC10567573.
